Test system: S. Typhi PhoP-promoter GFP reporter, fluorescence, 4 h
Experiment notes: PhoP regulon inhibitor project modified counter assay, GFP fluorescence readout, dose response (AID 1985)
Parameter: IC50

Item: "c1ccc(CN2CCN(c3ncnc4c3[nH]c3ccccc34)CC2)cc1" | IC50: 103 µM

Item: "O=C(CCN1CCN(c2ccccc2F)CC1)c1ccc(Br)cc1" | IC50: 43.4 µM

Item: "CCCCCc1ccc(OCCCC[n+]2cccc(C)c2)c(CCCCC)c1" | IC50: 103 µM

Item: "O=c1oc2ccccc2nc1/C=C(\O)c1ccccc1" | IC50: 23.9 µM

Item: "N#C/C(=C\c1ccc[nH]1)C(=O)NC1CC1" | IC50: 63.7 µM

Item: CN(C)C1C(=O)C(C(N)=O)=C(O)C2(O)C(=O)C3=C(O)c4c(O)cccc4C(C)(O)C3C(O)C12 (centres undefined) | IC50: 1.54 µM

Item: "COc1ccc(/C=C/c2cc(-c3ccc(C)cc3)o[n+]2C)cc1" | IC50: 100 µM

Item: "NC(N)=Nc1nc(-c2ccccc2)c2cc(Cl)ccc2n1" | IC50: 97.8 µM

Item: "O=C(C[n+]1cc(-c2ccc(Cl)c(Cl)c2)n2c1CCC2)N1c2ccccc2Sc2ccccc21" | IC50: 78.2 µM

----------
System: S. Typhi PhoP-promoter GFP reporter, fluorescence, 4 h
Experiment notes: PhoP regulon inhibitor project modified counter assay, GFP fluorescence readout, dose response (AID 1985)
Record form. Attribute: pIC50. Fill in for each entry.
// pIC50: -log10(molar conc.)

Item: COc1ccc(CNCC(O)COc2ccc(C(C)(C)c3ccccc3)cc2)cc1 (configuration not stated) | pIC50: 4.43

Item: "COc1ccc(C(=O)NC(=S)NNC(=O)c2cnccn2)cc1OC" | pIC50: 4.22

Item: "NC(=O)SCC(=O)Nc1ccc(Cl)cc1" | pIC50: 4.35

Item: "O=[N+]([O-])c1cc(F)c2cccnc2c1O" | pIC50: 5.32

Item: "O=C(Oc1ccccc1)c1cc2ccccc2o1" | pIC50: 4.12

Item: "Nc1[nH]ncc1-c1ccccc1" | pIC50: 4.50

Item: "CCCCCNC(=O)c1cn(CC)c2cc(N3CCN(C)CC3)c(F)cc2c1=O" | pIC50: 4.10

Item: "Oc1ccc(CN2CCCc3ccccc32)c2cccnc12" | pIC50: 4.44

Item: "Cc1ccc2sc(N(CCCN(C)C)C(=O)c3ccc(Br)s3)nc2c1C" | pIC50: 3.92

Item: Cc1ccc(-c2ccccc2NC(=O)CS(=O)CC(=O)Nc2ccc(C)c(Cl)c2)o1 (configuration not stated) | pIC50: 4.33

Item: "Nc1nc(N)c(Cc2ccc(Cl)cc2Cl)c(N)n1" | pIC50: 3.99

Item: CCOC(=O)C1Nc2c(F)cc(C)cc2C2c3ccccc3CC12 (configuration not stated) | pIC50: 3.87

Item: "C(=N/Nc1nccs1)/c1cccnc1" | pIC50: 4.21

Item: "C/C(=N/Nc1ccnc2cc(Cl)ccc12)c1ccc(N)cc1" | pIC50: 4.26

Item: "Cc1nc(N)c(Cc2ccc(Cl)cc2Cl)c(N)n1" | pIC50: 4.08

Item: "CCOC(=O)c1ccc(CNCc2ccc(Br)cc2)cc1" | pIC50: 4.27

Item: "O=C(N/N=C/c1ccc([N+](=O)[O-])o1)C1CCCC1" | pIC50: 4.42

Item: "CCCCCc1ccc(OCCCC[n+]2ccccc2)c(CCCCC)c1" | pIC50: 4.13

Item: "C#CCOCCOCCOCCNc1nc(N2CCN(C(=O)CCCCCCCCCCNC(=O)[C@@H](CCSC)n3cc(CCO)nn3)CC2)nc(N2CCN(C(=O)CCCCCCCCCCNC(=O)[C@H]([C@@H](C)CC)n3cc(CCCCCN)nn3)CC2)n1" | pIC50: 3.96

Item: "CCCNC(=O)c1cn(CC)c2cc(N3CCN(C)CC3)c(F)cc2c1=O" | pIC50: 4.55

Item: "Nc1nnnn1/N=C/c1cc([N+](=O)[O-])ccc1O" | pIC50: 4.04

Item: "CCn1cc(C(=O)O)c(=O)c2cc(F)c(N3CCN(C(=O)Nc4ccccc4)CC3)cc21" | pIC50: 4.68

Item: "NC1=NC[C@H](Cc2ccc(O)cc2)N1CCC12CC3CC(CC(C3)C1)C2" | pIC50: 4.02

Item: "COc1ccc2c(C(=O)CCl)c[nH]c2c1" | pIC50: 4.44

Item: "CC(C)[C@@H]1CC[C@@H](C)C[C@H]1OC(=O)C[n+]1cc(-c2ccc(Cl)cc2)n2c1CCCCC2" | pIC50: 3.85

Item: "O=C(O)c1cccc(N2C(=O)CSC2=S)c1" | pIC50: 4.21

Item: "CCSc1ccc2c(c1)N(CCCN1CCN(C)CC1)c1ccccc1S2" | pIC50: 3.88

// provenance: PubChem BioAssay AID1985
